The values you see were collected from ChEMBL document CHEMBL1201862.

# System: MCF7
# Test: NCI tumour cell line growth inhibition, 48 h
Calls of active or inactive are those of the source. Cut-off read from the data, not from the text of the source: active = GI50 up to about 1.1 µM and inactive = higher.
Attribute measured: GI50

Request: # query: GI50 | item CN1C2CCC1C(C(O)c1ccccc1[N+](=O)[O-])C(=O)C2 (stereo unspecified) | system: MCF7
Result: 39.1 µM (inactive)

Request: Consider next the compound `O=Cc1cc(O)ccc1Br` in the same way.
Result: 4.41 µM (inactive)

Request: // same read-out, input: `NN=C(S)Nc1cccc(Cl)c1`
Result: > 100 µM (inactive)

Request: // same read-out, input: O=P(O)(O)CC1OC(CO)C(O)C1O (stereo unspecified)
Result: > 100 µM (inactive)

Request: Also `CC(C)(C)C(=O)N(C(=S)OCc1ccccn1)c1ccccc1` ?
Result: 19.8 µM (inactive)

Request: Also check `O=C(CCCN1CCC2(CC1)CC(=O)N(N1CCCCCC1)C2=O)c1ccc(F)cc1`
Result: 46.2 µM (inactive)

Request: CC1CC2(OC2C)C(=O)OC2CCN(C)C/C=C(/COC(=O)C1(C)O)C2=O (stereo unspecified)
Result: > 100 µM (inactive)

Request: Now try `COc1ccc(P2(=S)OC(C)(C)C(C)(C)O2)cc1` .
Result: > 100 µM (inactive)

Request: Please give the result for `CCOC(=O)c1ccc(C(=O)OCC)n1-c1cc2cc(c1)CSCc1cc(cc(-n3c(C(=O)OCC)ccc3C(=O)OCC)c1)CSC2` too.
Result: > 10 µM (inactive)

Request: Field entry: Cc1ccc(OCC2OC(n3cnc4c(Br)nc(Br)nc43)CC2Oc2ccc(C)cc2)cc1 (stereo unspecified)
Result: 4.32 µM (inactive)

Request: What about `CC(C)N/C(=N\C#N)NS(=O)(=O)c1cnccc1Nc1ccc(Cl)cc1` ?
Result: > 100 µM (inactive)
